# Test system: UniProt:P35869
# Sequence (P35869 11-848): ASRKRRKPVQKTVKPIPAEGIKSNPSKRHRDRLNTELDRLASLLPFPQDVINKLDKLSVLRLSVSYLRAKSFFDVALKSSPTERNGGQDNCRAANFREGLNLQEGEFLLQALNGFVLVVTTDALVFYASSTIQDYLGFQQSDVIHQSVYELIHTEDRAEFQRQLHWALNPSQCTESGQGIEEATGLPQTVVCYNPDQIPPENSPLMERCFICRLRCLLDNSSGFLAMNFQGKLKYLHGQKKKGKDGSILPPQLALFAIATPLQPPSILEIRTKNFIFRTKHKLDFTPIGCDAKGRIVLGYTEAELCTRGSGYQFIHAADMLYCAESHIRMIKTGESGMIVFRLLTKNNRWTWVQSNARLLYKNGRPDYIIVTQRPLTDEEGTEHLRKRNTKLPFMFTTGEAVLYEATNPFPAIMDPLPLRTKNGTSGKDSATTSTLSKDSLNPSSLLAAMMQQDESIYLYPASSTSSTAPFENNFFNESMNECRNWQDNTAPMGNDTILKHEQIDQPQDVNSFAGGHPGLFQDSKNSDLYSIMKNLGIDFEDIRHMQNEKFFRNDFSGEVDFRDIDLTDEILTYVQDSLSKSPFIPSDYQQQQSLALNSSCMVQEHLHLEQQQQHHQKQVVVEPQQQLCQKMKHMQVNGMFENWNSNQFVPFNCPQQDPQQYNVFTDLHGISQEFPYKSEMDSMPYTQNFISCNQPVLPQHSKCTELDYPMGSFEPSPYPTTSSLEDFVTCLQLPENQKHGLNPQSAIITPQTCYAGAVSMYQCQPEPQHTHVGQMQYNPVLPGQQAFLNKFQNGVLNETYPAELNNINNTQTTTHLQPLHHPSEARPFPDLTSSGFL
# Assay info: In vitro assay 3: AHR-regulated CYP1A1 expression in human cell line (U937, qPCR, KA stimulation)
# Assay type: cell-based
# Experimental parameters: U937 cells, 200 uM KA, 6 hours, CYP1A1 expression by qPCR; read-out: Assay 3: Hum CYP1A1 Antagonism IC50
pIC50: −log10 of the molar value.
Measured endpoint: pIC50

Look at this compound and give its reported pIC50. O=C(N[C@H]1COC[C@@H]1O)c1cc(-c2ccc(OC(F)(F)F)cc2)nn(-c2cccnc2)c1=O (single isomer, unassigned; enantiomer 2)
7.43

Look at this compound and give its reported pIC50. `O=C(N[C@@H]1CCC[C@@H]1O)c1cc(-c2ccc(C(F)(F)F)cc2)nn(-c2cccnc2)c1=O`
7.61

Look at this compound and give its reported pIC50. CC(C)(O)C(NC(=O)c1cc(-c2ccc(C(F)(F)F)cc2)nn(-c2cccnc2)c1=O)C(F)(F)F (single isomer, unassigned; (-))
7.44

Look at this compound and give its reported pIC50. `CC(C)(O)CNC(=O)c1cc(-c2ccc(OC(F)(F)F)cc2)nn(-c2cccnc2)c1=O`
7.36

Look at this compound and give its reported pIC50. `CC(C)[C@@H](CO)NC(=O)c1cc(-c2ccc(Cl)cc2)nn(-c2cnn(C)c2)c1=O`
8.60

1. Cn1cc(-n2nc(-c3ccc(C(F)(F)F)cc3)cc(C(=O)NC[C@H](O)C(F)(F)F)c2=O)cn1
2. C[C@H](NC(=O)c1cc(-c2ccc(C(F)F)cc2)nn(-c2cccnc2)c1=O)C(C)(C)O
Quick check, higher pIC50 between 1 and 2 ? Could you answer with the label of the item you picked?
1

----------
# Test system: UniProtKB P35869
# Assay info: In vitro assay 1: antagonism in human cell line (transactivation assay, U87 cells prestimulated with kynurenic acid, DRE firefly luciferase reporter)
# Assay type: cell-based
# Design: host or cells: U87 glioblastoma cells, stably transfected with DRE firefly luciferase and renilla reporter constructs
# Experimental parameters: 150 uM kynurenic acid, 20 hours, read-out: Assay 1: AHR-luc Hum Antagonism IC50
Measured endpoint: IC50 (nM)

Guide cases for IC50, answers given:
Look at this molecule and give its reported IC50. `O=C(NC[C@H](O)CF)c1cc(-c2ccc(C(F)(F)F)cc2)nn(-c2cccnc2)c1=O`
25.8

Look at this molecule and give its reported IC50. `COC[C@@H](CO)NC(=O)c1cc(-c2ccc(C(F)(F)F)cc2)nn(-c2cccnc2)c1=O`
26.3

Look at this molecule and give its reported IC50. `C[C@H](NC(=O)c1cc(-c2ccc(Cl)cc2)nn(-c2cnn(C)c2)c1=O)C(C)(C)O`
20.6

A. Cn1cc(-n2nc(-c3ccc(C(F)(F)F)cc3)cc(C(=O)NC[C@H](O)C(F)F)c2=O)cn1
B. C[C@@H](CO)NC(=O)c1cc(-c2ccc(Cl)cc2)nn(-c2cccnc2)c1=O
Quick check, higher IC50 between A and B ? Could you answer with the label of the item you picked?
B
(B: 24.2 nM, A: 3.21 nM)

----------
# Test system: AHR (Homo sapiens, UniProt P35869)
# Sequence (P35869 11-848): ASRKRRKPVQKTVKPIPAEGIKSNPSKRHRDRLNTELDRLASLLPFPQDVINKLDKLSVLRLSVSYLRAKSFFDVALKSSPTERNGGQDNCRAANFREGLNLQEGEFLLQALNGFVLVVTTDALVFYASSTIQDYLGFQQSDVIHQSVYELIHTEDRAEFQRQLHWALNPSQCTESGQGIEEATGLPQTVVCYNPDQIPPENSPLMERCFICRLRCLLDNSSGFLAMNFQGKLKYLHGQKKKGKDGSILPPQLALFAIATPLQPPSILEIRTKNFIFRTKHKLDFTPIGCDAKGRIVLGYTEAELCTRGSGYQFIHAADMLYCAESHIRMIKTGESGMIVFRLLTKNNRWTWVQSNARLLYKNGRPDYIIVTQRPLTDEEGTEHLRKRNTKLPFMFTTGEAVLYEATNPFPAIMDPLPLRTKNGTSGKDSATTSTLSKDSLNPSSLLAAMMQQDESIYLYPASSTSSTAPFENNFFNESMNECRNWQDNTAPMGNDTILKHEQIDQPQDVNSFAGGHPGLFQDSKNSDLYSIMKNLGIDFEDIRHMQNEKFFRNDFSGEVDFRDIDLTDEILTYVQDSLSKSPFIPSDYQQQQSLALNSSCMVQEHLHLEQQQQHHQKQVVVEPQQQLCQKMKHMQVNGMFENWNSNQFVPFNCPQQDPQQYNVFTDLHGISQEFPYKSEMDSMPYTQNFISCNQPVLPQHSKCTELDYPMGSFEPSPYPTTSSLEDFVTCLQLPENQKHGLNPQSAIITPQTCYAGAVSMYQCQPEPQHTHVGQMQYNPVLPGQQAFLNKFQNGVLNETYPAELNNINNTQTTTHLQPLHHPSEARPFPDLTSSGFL
# Assay info: In vitro assay 1: antagonism in human cell line (transactivation assay, U87 cells prestimulated with kynurenic acid, DRE firefly luciferase reporter)
# Format: cell-based
# Design: host or cells: U87 glioblastoma cells, stably transfected with DRE firefly luciferase and renilla reporter constructs
# Experimental parameters: 150 uM kynurenic acid, 20 hours, read-out: Assay 1: AHR-luc Hum Antagonism IC50
pIC50: −log10 of the molar value.
Measured endpoint: pIC50

Guide cases for pIC50, answers given:
Look at this compound and give its reported pIC50. O=C(N[C@@H]1CCC[C@@H]1O)c1cc(-c2ccc(Cl)cc2)nn(-c2cccnc2)c1=O [Example 138]
8.04

Look at this compound and give its reported pIC50. Cc1ccc(-c2cc(C(=O)N[C@@H](C)CO)c(=O)n(-c3cnn(C)c3)n2)cc1 [Example 8]
7.72

Look at this compound and give its reported pIC50. Cn1cc(-n2nc(-c3ccc(Cl)cc3)cc(C(=O)N[C@@H]3CCC[C@]3(C)O)c2=O)cn1 (single isomer, unassigned) [Example 335]
7.95

Look at this compound and give its reported pIC50. O=C(N[C@H]1CCC[C@H]1O)c1cc(-c2ccc(Cl)cc2)nn(-c2cncc(F)c2)c1=O [Example 129]
8.26

Look at this compound and give its reported pIC50. CC(C)(O)CNC(=O)c1cc(-c2ccc(C(F)(F)F)cc2)nn(-c2cnsc2)c1=O [Example 208]
8.91

Look at this compound and give its reported pIC50. C[C@@H](CO)NC(=O)c1cc(-c2ccc(CF)cc2)nn(-c2cccnc2)c1=O [Example 285]
6.22

Look at this compound and give its reported pIC50. O=C(N[C@H]1CCC[C@@H]1O)c1cc(-c2ccc(C(F)(F)F)cc2)nn(-c2cccnc2)c1=O [Example 102]
8.73

Look at this compound and give its reported pIC50. C[C@@H](CO)NC(=O)c1cc(-c2ccc(OC(F)(F)F)cc2)nn(-c2cnn(C)c2)c1=O [Example 53]
7.94

I. CC(C)(O)C(NC(=O)c1cc(-c2ccc(Cl)cc2)nn(-c2cncnc2)c1=O)C(F)(F)F (single isomer, unassigned) [Example 186]
II. O=C(NCC(O)C(F)F)c1cc(-c2ccc(Cl)cc2)nn(-c2cccnc2)c1=O (single isomer, unassigned; (+)) [Example 88]
III. O=C(N[C@H](CO)C1CC1)c1cc(-c2ccc(C(F)(F)F)nc2)nn(-c2cncc(F)c2)c1=O [Example 339]
# sort list by recorded pIC50, greatest to least Give the labels in the order requested.
III, II, I

Where do these numbers come from? They come from patent US12522594B2.
